# measurement_target: Cyclin-dependent kinase 4 (Homo sapiens)
# test_protocol: Inhibition of CDK4-specific Rb-S780 phosphorylation of HCT116 cells at 2xIC50 for 24 hr
# Format: functional, cell-based
# particulars: HCT-116
Listing: inhibition of selected molecules
Just the number please, in %, no unit attached.

molecule | inhibition, %
O=C1NC(=O)c2c1c1c3ccc(Br)cc3[nH]c1c1c2c2cccc3c2n1CC(CO)C3 (configuration not stated) | 74
O=C1NC(=O)c2c1c1c3ccccc3[nH]c1c1c2c2cccc3c2n1CC(CO)C3 (configuration not stated) | 55
O=C1NC(=O)c2c1c1c3ccccc3[nH]c1c1c2c2cccc3c2n1C(CO)CC3 (configuration not stated) | 65
O=C1NC(=O)c2c1c1c3ccc(F)cc3[nH]c1c1c2c2cccc3c2n1CC(CO)C3 (configuration not stated) | 53
O=C1NC(=O)c2c1c1c3ccccc3[nH]c1c1c2c2cccc3c2n1CCC3CO (configuration not stated) | 23
O=C1NC(=O)c2c1c1c3ccccc3[nH]c1c1c2c2cccc3c2n1CC(CO)CC3 (configuration not stated) | 85

Proceed to the following item.
# input molecule: COc1ccc2c(c1)[nH]c1c2c2c(c3c4cccc5c4n(c13)CC(CO)C5)C(=O)NC2=O (configuration not stated) ; wanted: its inhibition
77
